The entries below are paired with their reported chromatographic logP.
test: logP determination by HPLC (reversed-phase C18), EEC directive 79/831 Annex V.A8; assay type: physicochemical; details: pH 2.3, 0.1% aqueous phosphoric acid/acetonitrile gradient, 43° C., read-out: log P (pH 2.3)
Metric: chromatographic logP

Molecule | Recorded result
Cc1cc(C(F)(C(F)(F)F)C(F)(F)F)ccc1NC(=O)c1c(Cl)cccc1C(=O)NCC(C)(C)O[Si](C)(C)C (single isomer, unassigned) [Example 3 Isomer 2] | 3.19
CC(N)CSC[Si](C)(C)C (centres unmarked) | 1.28
Cc1cc(C(F)(C(F)(F)F)C(F)(F)F)ccc1NC(=O)c1cccc(Cl)c1C(=O)NC(C)CSC[Si](C)(C)C (single isomer, unassigned) [Example 1 Isomer 2] | 5.56
Cc1cc(C(F)(C(F)(F)F)C(F)(F)F)ccc1NC(=O)c1cccc(Cl)c1C(=O)NCC(C)(C)O[Si](C)(C)C (single isomer, unassigned) [Example 3 Isomer 1] | 3.11
Cc1cc(C(F)(C(F)(F)F)C(F)(F)F)ccc1NC(=O)c1c(Cl)cccc1C(=O)NC(C)CSC[Si](C)(C)C (single isomer, unassigned) [Example 1 Isomer 1] | 5.38
